Molecular target: hERα (Homo sapiens)
Construct: ERα degradation High Content Imaging assays in MCF7 ESR1 Wild Type cells; endogenous in cells; host or cells: MCF7 (ESR1 wild type)
Test: ERα degradation high content imaging assay in MCF7 cells
Assay type: cell-based
Settings: MCF7 ESR1 Wild Type cells; output % estrogen receptor positive cells; read-out: Relative IC50 (μM), hERα Degradation Cell Assay in MCF7 Cells
reported-metric: DC50

INSERT INTO results (molecule, reported_metric, experimental_result) VALUES
  ('O=CCOc1ccc(C2Oc3cc(C(F)(F)F)ccc3-c3cnc4cc(O)ccc4c32)cc1 (stereo not drawn)', 'DC50', '> 2 µM'),
  ('O=C(c1ccc(OCCN2CC(CF)C2)cc1)c1c(Cl)cnc2cc(O)ccc12', 'DC50', '0.126 µM'),
  ('CCOC(COc1ccc(C(=O)c2c(-c3ccc(C(F)(F)F)cc3F)cnc3cc(O)ccc23)cc1)OCC', 'DC50', '> 2 µM'),
  ('CCOC(COc1ccc(C2Oc3cc(C(F)(F)F)ccc3-c3cnc4cc(O)ccc4c32)cc1)OCC (stereo not drawn)', 'DC50', '> 2 µM'),
  ('Oc1ccc2c(C(O)c3ccc(OCCN4CC(CF)C4)cc3)c(-c3ccc(C(F)(F)F)cc3F)cnc2c1 (stereo not drawn)', 'DC50', '0.278 µM'),
  ('CCOC(COc1ccc(C(O)c2c(-c3ccc(C(F)(F)F)cc3F)cnc3cc(O)ccc23)cc1)OCC (stereo not drawn)', 'DC50', '> 2 µM');

###

Target: hERα (Homo sapiens, UniProt P03372)
Construct: ERα degradation High Content Imaging assays in MCF7 ESR1 Wild Type cells; endogenous in cells; host or cells: MCF7 (ESR1 wild type)
Sequence (P03372 1-595): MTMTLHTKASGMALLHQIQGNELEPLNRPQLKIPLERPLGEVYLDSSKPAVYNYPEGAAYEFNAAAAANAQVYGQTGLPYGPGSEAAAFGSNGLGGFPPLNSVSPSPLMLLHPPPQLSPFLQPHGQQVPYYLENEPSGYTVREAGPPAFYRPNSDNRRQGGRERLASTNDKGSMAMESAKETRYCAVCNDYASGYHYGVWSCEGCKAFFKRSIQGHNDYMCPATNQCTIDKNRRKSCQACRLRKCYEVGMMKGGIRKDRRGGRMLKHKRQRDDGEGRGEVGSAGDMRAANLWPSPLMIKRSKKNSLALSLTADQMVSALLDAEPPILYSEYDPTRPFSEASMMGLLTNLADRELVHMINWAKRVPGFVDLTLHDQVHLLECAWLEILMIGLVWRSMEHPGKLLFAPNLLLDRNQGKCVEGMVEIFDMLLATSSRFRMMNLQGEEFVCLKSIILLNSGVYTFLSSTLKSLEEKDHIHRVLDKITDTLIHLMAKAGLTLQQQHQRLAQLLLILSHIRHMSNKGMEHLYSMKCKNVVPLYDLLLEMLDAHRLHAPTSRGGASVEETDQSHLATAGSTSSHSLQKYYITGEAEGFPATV
Test: ERα degradation high content imaging assay in MCF7 cells
Format: cell-based
Conditions: MCF7 ESR1 Wild Type cells; output % estrogen receptor positive cells; read-out: Relative IC50 (μM), hERα Degradation Cell Assay in MCF7 Cells
reported-metric: IC50 (µM)

INSERT INTO assay_data (smiles_code, reported_metric, experimental_result) VALUES
  ('O=C(c1ccc(OCCN2CC(CF)C2)cc1)c1c(-c2ccc(C(F)(F)F)cc2F)cnc2cc(O)ccc12', 'IC50', 0.00216);

This collection of values is drawn from patent US11926634B2.
